Recorded measurements of self-cleavage, one per entry
B1: CPEB3 Ribozyme (parent)
chain: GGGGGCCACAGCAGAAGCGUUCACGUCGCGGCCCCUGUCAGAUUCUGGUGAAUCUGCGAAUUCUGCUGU

Variants of: B1
Experiment: self-cleavage, relative activity (ratio to wild type); higher = more cleavage; co-transcriptional
Number only, please.

1. GGGGGCCACAGCAGAAGCGUUCACGUCGCGGCCCCUGUCAGAAUCUGGUGAAUCUGCGAAUUCAGCUGU [U43A U64A] = 0.591

Query block: Form field: reported self-cleavage of GGGGGCCACAGCAGAAGCGUUAACGUCGCGGUCCCUGUCAGAUUCUGGUGAAUCUGCGAAUUCUGCUGU [C22A C32U]
Result block: 0.201

Query block: Cool, now GGGGGCCACAGCAGAAGCGUUCACGUCGCGGCCCCUGUCUGAUUCUGGUGAAUCUGCGAAUUCGGCUGU [A40U U64G]
Result block: 0.598

Origin of values: the RNAGym collection of RNA variant scans (doi:10.7554/elife.80360)
